Hi there, I'd appreciate the recorded growth AUC for every entry that follows.
tested on: Coprococcus comes; assay: growth AUC relative to DMSO control (median of replicates) (fraction); higher = more growth (less inhibition), active = hit call of the paper; settings: 20 µM; 24 h
One number for each entry.

Compound | Numeric result
Cc1ccc(Cl)cc1 | 1
C=CCc1ccc(OC)c(OC)c1 | 1.01
CCOCCc1ccc(OCCNc2ncnc(CC)c2Cl)c(C)c1C | 0.978
O=c1cc(Cl)[nH]nc1-c1ccccc1 | 0.973
NC(=O)C1CO1 (configuration not stated) | 0.93

Take each entry in turn and give its growth AUC.
1. NC(=O)c1nn(-c2c(Cl)cc(C(F)(F)F)cc2Cl)c(N)c1S(=O)C(F)(F)F (configuration not stated)
2. CCc1nc2ncnn2c(N)c1CCCC(=O)O.Cl

RESULT:
1. 0.958
2. 1.02

Take each entry in turn and give its growth AUC.
1. CC(C)CCCCCOC(=O)C(C)Oc1ccc(Cl)cc1Cl (configuration not stated)
2. Br[C@@H]1CC[C@@H](Br)[C@@H](Br)CC[C@@H](Br)[C@@H](Br)CC[C@H]1Br
3. CCOC(=O)C1=NOC(c2ccccc2)(c2ccccc2)C1
4. CCCCCCC(C)OC(=O)C(C)Oc1ccc(Cl)cc1C (configuration not stated)
5. O=C1NCCN1

RESULT:
1. 1.01
2. 0.934
3. 0.974
4. 0.994
5. 1.04

====

tested on: Parabacteroides merdae; test: growth AUC relative to DMSO control (median of replicates) (fraction); higher = more growth (less inhibition), active = hit call of the paper; conditions: 20 µM; 24 h
Endpoint: growth AUC
One number for each entry.

// worked examples, growth AUC included
Molecule | growth AUC
NS(=O)(=O)[O-].[NH4+] | 1.06
N#Cc1cc(Cl)c(O)c(Cl)c1 | 0.93
ClC=C(c1ccc(Cl)cc1)c1ccc(Cl)cc1 | 0.948
CC(C)N(C(=O)CS(=O)(=O)[O-])c1ccccc1.[Na+] | 1
O=C(O)Cc1cccc2ccccc12 | 1.01
COc1ccccc1C(=O)NS(=O)(=O)c1ccc(C(=O)NC2CC2)cc1 | 1.01

Take each entry in turn and give its growth AUC.
1. CCOC(=O)NCCOc1ccc(Oc2ccccc2)cc1
2. N#Cc1ccc(CC(=NNC(=O)Nc2ccc(OC(F)(F)F)cc2)c2cccc(C(F)(F)F)c2)cc1 (mixture of isomers)
3. [O-][n+]1nc(-n2ccnc2)nc2ccc(Cl)cc21

RESULT:
0.974
0.936
1.02

Take each entry in turn and give its growth AUC.
1. CC1CN(C2CCCCCCCCCCC2)CC(C)O1 (mixture of isomers)
2. CCOC(=O)CSc1nc(C(C)(C)C)nn1C(=O)N(C)C

RESULT:
1: 0.97; 2: 0.947

====

tested on: Collinsella aerofaciens; experiment: growth AUC relative to DMSO control (median of replicates) (fraction); higher = more growth (less inhibition), active = hit call of the paper; details: 20 µM; 24 h
Label False if growth AUC falls below 1; label True in every other case.

Past entries and their recorded results:
Query smiles | Classification
CCOC(=O)Nc1cccc(OC(=O)Nc2cccc(C)c2)c1 | False
O=C(O)Cc1cccc2ccccc12 | False

QUERY: hey, is growth AUC for this one >= 1? CON(C(=O)c1cc(C)oc1C)C1CCCCC1
RESULT: True

QUERY: hey, is growth AUC for this one >= 1? CCOCOc1ccc(C(=O)Nc2cccc(Cl)c2Cl)cc1
RESULT: False

QUERY: hey, is growth AUC for this one >= 1? CCCOC(=O)c1ccc(C(=O)OCCC)nc1
RESULT: False

QUERY: hey, is growth AUC for this one >= 1? CCCCCCCCCC[N+](C)(C)Cc1ccccc1.[Cl-]
RESULT: False

====

test system: Odoribacter splanchnicus; test: growth AUC relative to DMSO control (median of replicates) (fraction); higher = more growth (less inhibition), active = hit call of the paper; conditions: 20 µM; 24 h;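 active = AUC reduced over 20% with Padj below 0.05 in at least 2 of 3 replicates; inactive = otherwise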
A correct response names exactly one class from Yes for active, No for inactive

QUERY: Please share the test call associated with O=c1cc(Cl)[nH]nc1-c1ccccc1 .
RESULT: No

====

tested on: Bifidobacterium longum subsp. longum; experiment: growth AUC relative to DMSO control (median of replicates) (fraction); higher = more growth (less inhibition), active = hit call of the paper; settings: 20 µM; 24 h
Hi there, I'd appreciate the recorded growth AUC for every entry that follows.
Numbers only.

Take each entry in turn and give its growth AUC.
1. CC(C)Nc1nc(N)nc(Cl)n1
2. CC(=O)Nc1cc(NS(=O)(=O)C(F)(F)F)c(C)cc1C
3. CC(C)C1C2CCC1c1c(NC(=O)c3cn(C)nc3C(F)F)cccc12 (stereo not given)
4. CCOC(=O)C1=NOC(c2ccccc2)(c2ccccc2)C1
5. C#CCOc1cc(-n2nc(C(C)(C)C)oc2=O)c(Cl)cc1Cl

RESULT:
1. 1
2. 0.92
3. 0.912
4. 0.966
5. 1.05

====

Hi there, I'd appreciate the recorded growth AUC for every entry that follows.
tested on: Bifidobacterium longum subsp. longum; assay: growth AUC relative to DMSO control (median of replicates) (fraction); higher = more growth (less inhibition), active = hit call of the paper; conditions: 20 µM; 24 h
Give bare numbers.

// worked examples, growth AUC included
Molecule | growth AUC
O=C1NCC[n+]2ccccc21.[Br-] | 0.972
Cc1nn(C)c(OCC(=O)c2ccccc2)c1C(=O)c1ccc(Cl)cc1Cl | 0.992
Cc1ccc2c(c1)[C@H](Nc1nc(N)nc(C(C)F)n1)[C@@H](C)C2 (stereo not given in full) | 1.03

Take each entry in turn and give its growth AUC.
1. Nc1ccc(S(=O)(=O)Nc2nccs2)cc1
2. N#Cc1cc(Cl)c(O)c(Cl)c1
3. O.O=C(Nc1ccc(Cl)c(Cl)c1)Nc1cc(Cl)ccc1Oc1ccc(Cl)cc1S(=O)(=O)[O-].[Na+]
4. CCC(C)c1cc([N+](=O)[O-])cc([N+](=O)[O-])c1OC(=O)OC(C)C (stereo not given)
5. COc1nc(OC)nc(C(=O)c2cccc(F)c2N(C)S(=O)(=O)C(F)F)n1

RESULT:
[0.998, 1.03, 0.912, 0.959, 1.03]

Take each entry in turn and give its growth AUC.
1. CS(=O)(=O)c1ccc(C(=O)C2C(=O)C(O)CC(O)C2=O)c(Cl)c1COCC(F)(F)F (stereo not given)
2. CCOC(=O)NCCOc1ccc(Oc2ccccc2)cc1

RESULT:
[0.978, 0.914]

====

tested on: Fusobacterium nucleatum subsp. animalis; experiment: growth AUC relative to DMSO control (median of replicates) (fraction); higher = more growth (less inhibition), active = hit call of the paper; details: 20 µM; 24 h;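 active = AUC reduced over 20% with Padj below 0.05 in at least 2 of 3 replicates; inactive = otherwise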
A correct response names exactly one class from Yes = active, No = inactive

Compound | Classification
O=C(O)CNC(=O)c1cnccc1C(F)(F)F | No
CC1(C)C(=O)Oc2ccc(OS(C)(=O)=O)cc21 | No
COc1cc(Cl)ccc1Oc1ccc(Cl)cc1Cl | No
Cc1cccc(C)c1O | No
CN(C)C(N)=O | No

QUERY: Please share the test call associated with CC(C)(c1ccc(O)cc1)c1ccc(O)cc1 .
RESULT: No

QUERY: Please share the test call associated with Cc1cccc(C)c1N(CC(=O)O)C(=O)CS(=O)(=O)[O-].[Na+] .
RESULT: No

QUERY: Please share the test call associated with O=C(O)COc1cc(N2C(=O)C3=C(CCCC3)C2=O)c(F)cc1Cl .
RESULT: No

QUERY: Please share the test call associated with CCc1cccc(C)c1N(COC(C)C)C(=O)CCl .
RESULT: No

QUERY: Please share the test call associated with N#Cc1cc(Cl)c(O)c(Cl)c1 .
RESULT: No

QUERY: Please share the test call associated with CCN(Cc1c(F)cccc1Cl)c1c([N+](=O)[O-])cc(C(F)(F)F)cc1[N+](=O)[O-] .
RESULT: No

====

tested on: Akkermansia muciniphila; assay: growth AUC relative to DMSO control (median of replicates) (fraction); higher = more growth (less inhibition), active = hit call of the paper; conditions: 20 µM; 24 h
Label f if growth AUC falls below 1; label t in every other case.

Past entries and their recorded results:
Compound | Classification
CS(=O)(=O)c1ccc(C(=O)O)c(N)c1 | t
N#CC(=NOCC1OCCO1)c1ccccc1 | t
Nc1ccc(O)cc1 | f
NC(Cn1cncn1)C(=O)O (centres undefined) | f
CP(=O)(O)CCC(=O)O | f

QUERY: hey, is growth AUC for this one >= 1? CC(=O)CC(c1ccccc1)c1c(O)c2ccccc2oc1=O (centres undefined)
RESULT: f

QUERY: hey, is growth AUC for this one >= 1? CCc1nc2ncnn2c(N)c1CCCCCC(=O)O.Cl
RESULT: t

QUERY: hey, is growth AUC for this one >= 1? CCS(=O)(=O)c1nnc(N(C)C(=O)NC)s1
RESULT: f

QUERY: hey, is growth AUC for this one >= 1? CCOC(=O)C1=NN(c2ccc(Cl)cc2Cl)C(C)(C(=O)OCC)C1 (centres undefined)
RESULT: f

QUERY: hey, is growth AUC for this one >= 1? O=C(Nc1ccc(Cl)cc1C(O)c1ccccc1)c1ccncc1 (centres undefined)
RESULT: t

QUERY: hey, is growth AUC for this one >= 1? Cc1cccc(C)c1N(CCSCC(O)C(=O)[O-])C(=O)CO.[Na+] (centres undefined)
RESULT: t

QUERY: hey, is growth AUC for this one >= 1? CCCC(C)(C)C(=O)Nc1ccc(Cl)cc1
RESULT: f

QUERY: hey, is growth AUC for this one >= 1? CC(CNC(=S)[S-])NC(=S)[S-].[Zn+2] (mixture of isomers)
RESULT: t

QUERY: hey, is growth AUC for this one >= 1? Cc1nn(C)c(OCC(=O)c2ccccc2)c1C(=O)c1ccc(Cl)cc1Cl
RESULT: t

QUERY: hey, is growth AUC for this one >= 1? CCc1cccc(C)c1NC(=O)CS(=O)(=O)[O-].[Na+]
RESULT: f

QUERY: hey, is growth AUC for this one >= 1? CNC(=O)Sc1ccc(OS(C)(=O)=O)cc1
RESULT: f

QUERY: hey, is growth AUC for this one >= 1? CCNc1nc(Cl)nc(N(CC)CC)n1
RESULT: t

QUERY: hey, is growth AUC for this one >= 1? Cn1cc(C(=O)Nc2ccc(F)cc2-c2ccc(Cl)c(Cl)c2)c(C(F)F)n1
RESULT: f

QUERY: hey, is growth AUC for this one >= 1? CCCN(CCOc1c(Cl)cc(Cl)cc1Cl)C(=O)NC=O
RESULT: t

Where these numbers come from: the supplement of paper PMC12669032
